# Tested on: 926638-142-R-J1-PDC complex spheroid viability
# Assay Protocol: Anticancer human tumor 926638-142-R-J1-PDC patient-derived endometrial carcinoma cell line growth inhibition [POLQ]
# Condition Description: second compound 1 µM; first compound 0.1 µM; stronger effect = lower value
Property Measured: viability, T/C (%)
Hi! Could you send only the number? It should be in %, unit omitted.

Query :: Recorded viability, T/C for CNCc1ccc(-c2[nH]c3cc(F)cc4c3c2CCNC4=O)cc1 + Nc1ccc(C#CCN(C(=O)Cc2ncc(C(F)(F)F)cc2C(F)(F)F)c2ccc(F)cc2)nn1 , please?
Result :: 90.2

Query :: Recorded viability, T/C for CC(C)n1c(=O)n(C)c2cnc3cc(F)c(-c4ccc(OCCCN5CCCCC5)nc4)cc3c21 + Cc1cccc(N(C)C(=O)C2C(O)CCN2c2nc(C)cc(C(F)(F)F)c2C#N)c1 , please?
Result :: 88.9

Query :: Recorded viability, T/C for O=C(c1cc(Cc2n[nH]c(=O)c3ccccc23)ccc1F)N1CCN(C(=O)C2CC2)CC1 + Nc1ccc(C#CCN(C(=O)Cc2ncc(C(F)(F)F)cc2C(F)(F)F)c2ccc(F)cc2)nn1 , please?
Result :: 90.6

###

# System: 926638-142-R-J1-PDC complex spheroid viability
# Assay Protocol: Anticancer human tumor 926638-142-R-J1-PDC cell line growth inhibition [POLQ];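 further: spheroids exposed to drugs for one week before readout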
# Condition Description: curve of first compound; second compound 0.1 µM
Please provide measured IC50 for the entries that follow.
Hi! Could you send only the number? It should be in nM, unit omitted.

Query :: Recorded IC50 for CC1COCCN1c1cc(C2(O)CC3CCC(C2)O3)c2cnn(-c3ccn[nH]3)c2n1 (stereo not given) + COC1C(OC(N)=O)C(O)C(Oc2ccc3c(O)c(NC(=O)c4ccc(O)c(CC=C(C)C)c4)c(=O)oc3c2C)OC1(C)C , please?
Result :: 204

Query :: Recorded IC50 for C=CCn1c(=O)c2cnc(Nc3ccc(N4CCN(C)CC4)cc3)nc2n1-c1cccc(C(C)(C)O)n1 + Nc1ccc(C#CCN(C(=O)Cc2ncc(C(F)(F)F)cc2C(F)(F)F)c2ccc(F)cc2)nn1 , please?
Result :: 626

Query :: Recorded IC50 for CC1COCCN1c1cc(-c2ccnn2C)c2ccnc(-c3ccn[nH]3)c2n1 (stereo not given) + COC1C(OC(N)=O)C(O)C(Oc2ccc3c(O)c(NC(=O)c4ccc(O)c(CC=C(C)C)c4)c(=O)oc3c2C)OC1(C)C , please?
Result :: 403

Query :: Recorded IC50 for COc1cccc(OCCCN)c1-c1cc(Nc2cnc(C#N)cn2)n[nH]1 + Cc1cccc(N(C)C(=O)C2C(O)CCN2c2nc(C)cc(C(F)(F)F)c2C#N)c1 , please?
Result :: 59.4

Query :: Recorded IC50 for Nc1ccn(C2OC(CO)C(O)C2(F)F)c(=O)n1 (stereo not given) + Cc1cccc(N(C)C(=O)C2C(O)CCN2c2nc(C)cc(C(F)(F)F)c2C#N)c1 , please?
Result :: 1730

Query :: Recorded IC50 for CCc1cc2c(N3CCc4c(cc(Cn5ccnc5)cc4-c4cn(C)nc4C(F)(F)F)C3=O)cc(C)nc2c(OC)n1 + COC1C(OC(N)=O)C(O)C(Oc2ccc3c(O)c(NC(=O)c4ccc(O)c(CC=C(C)C)c4)c(=O)oc3c2C)OC1(C)C , please?
Result :: 277

Query :: Recorded IC50 for CCc1c2c(nc3ccc(O)cc13)-c1cc3c(c(=O)n1C2)COC(=O)[C@]3(O)CC + Cc1cccc(N(C)C(=O)C2C(O)CCN2c2nc(C)cc(C(F)(F)F)c2C#N)c1 , please?
Result :: 11.9

###

# Test system: 926638-142-R-J1-PDC complex spheroid viability
# Assay Protocol: Anticancer human tumor 926638-142-R-J1-PDC cell line growth inhibition [POLQ];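 further: spheroids exposed to drugs for one week before readout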;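 on viability, T/C: percent viability relative to DMSO vehicle control wells set as 100%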
# Condition Description: second compound 10 µM; first compound 0.000316 µM; stronger effect = lower value
In plain terms, low viability, T/C, meaning strictly below 90%, gives met, and everything else gives not met.

Query :: Dear colleague, could you confirm whether viability, T/C of CC[C@@]1(O)C(=O)OCc2c1cc1n(c2=O)Cc2cc3c(CN(C)C)c(O)ccc3nc2-1 + COC1C(OC(N)=O)C(O)C(Oc2ccc3c(O)c(NC(=O)c4ccc(O)c(CC=C(C)C)c4)c(=O)oc3c2C)OC1(C)C falls below 90%? Thanks.
Result :: met

Query :: Dear colleague, could you confirm whether viability, T/C of CC[C@@]1(O)C(=O)OCc2c1cc1n(c2=O)Cc2cc3c(CN(C)C)c(O)ccc3nc2-1 + Cc1cccc(N(C)C(=O)C2C(O)CCN2c2nc(C)cc(C(F)(F)F)c2C#N)c1 falls below 90%? Thanks.
Result :: not met

Query :: Dear colleague, could you confirm whether viability, T/C of Cn1ncnc1[C@H]1c2n[nH]c(=O)c3cc(F)cc(c23)N[C@@H]1c1ccc(F)cc1 + Nc1ccc(C#CCN(C(=O)Cc2ncc(C(F)(F)F)cc2C(F)(F)F)c2ccc(F)cc2)nn1 falls below 90%? Thanks.
Result :: not met

###

Please provide measured pIC50 for the entries that follow.
# System: 926638-142-R-J1-PDC complex spheroid viability
# Assay Protocol: Anticancer human tumor 926638-142-R-J1-PDC cell line growth inhibition [POLQ];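 further: spheroids exposed to drugs for one week before readout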
# Condition Description: curve of first compound; second compound 0.1 µM
pIC50: −log10 of the molar value.

Query :: Observed pIC50 on 926638-142-R-J1-PDC complex spheroid viability for COc1cc2cc(C(=O)CCC(=O)O)sc2cc1OC + Cc1cccc(N(C)C(=O)C2C(O)CCN2c2nc(C)cc(C(F)(F)F)c2C#N)c1 , please.
Result :: < 5.00

Query :: Observed pIC50 on 926638-142-R-J1-PDC complex spheroid viability for O=C(c1cc(Cc2n[nH]c(=O)c3ccccc23)ccc1F)N1CCN(C(=O)C2CC2)CC1 + Cc1cccc(N(C)C(=O)C2C(O)CCN2c2nc(C)cc(C(F)(F)F)c2C#N)c1 , please.
Result :: < 5.00

Query :: Observed pIC50 on 926638-142-R-J1-PDC complex spheroid viability for C#Cc1c(F)ccc2cc(O)cc(-c3ncc4c(N5CC6CCC(C5)N6)nc(OCC56CCCN5CC(F)C6)nc4c3F)c12 (stereo not drawn) + COC1C(OC(N)=O)C(O)C(Oc2ccc3c(O)c(NC(=O)c4ccc(O)c(CC=C(C)C)c4)c(=O)oc3c2C)OC1(C)C , please.
Result :: < 5.00

###

# System: 926638-142-R-J1-PDC complex spheroid viability
# Assay Protocol: Anticancer human tumor 926638-142-R-J1-PDC cell line growth inhibition [POLQ];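 further: spheroids exposed to drugs for one week before readout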;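 on viability, T/C: percent viability relative to DMSO vehicle control wells set as 100%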
# Condition Description: second compound 3.16 µM; first compound 0.0316 µM; stronger effect = lower value
Property Measured: viability, T/C (%)
Hi! Could you send only the number? It should be in %, unit omitted.

Query :: Recorded viability, T/C for CC1COCCN1c1cc(C2(O)CC3CCC(C2)O3)c2cnn(-c3ccn[nH]3)c2n1 (centres undefined) + Cc1cccc(N(C)C(=O)C2C(O)CCN2c2nc(C)cc(C(F)(F)F)c2C#N)c1 , please?
Result :: 85.9

Query :: Recorded viability, T/C for C=CC(=O)N1CCN(c2nc(=O)n(-c3c(C)ccnc3C(C)C)c3nc(-c4c(O)cccc4F)c(F)cc23)C(C)C1 (centres undefined) + COC1C(OC(N)=O)C(O)C(Oc2ccc3c(O)c(NC(=O)c4ccc(O)c(CC=C(C)C)c4)c(=O)oc3c2C)OC1(C)C , please?
Result :: 74.1

Query :: Recorded viability, T/C for CC(C)n1c(=O)n(C)c2cnc3cc(F)c(-c4ccc(OCCCN5CCCCC5)nc4)cc3c21 + COC1C(OC(N)=O)C(O)C(Oc2ccc3c(O)c(NC(=O)c4ccc(O)c(CC=C(C)C)c4)c(=O)oc3c2C)OC1(C)C , please?
Result :: 87.4

Query :: Recorded viability, T/C for COc1cccc(OCCCN)c1-c1cc(Nc2cnc(C#N)cn2)n[nH]1 + Cc1cccc(N(C)C(=O)C2C(O)CCN2c2nc(C)cc(C(F)(F)F)c2C#N)c1 , please?
Result :: 62.1

###

# Tested on: 926638-142-R-J1-PDC complex spheroid viability
# Assay Protocol: Anticancer human tumor 926638-142-R-J1-PDC cell line growth inhibition [POLQ];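 further: spheroids exposed to drugs for one week before readout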
# Condition Description: curve of first compound; second compound 3.16 µM
Please provide measured IC50 for the entries that follow.

Query :: Observed IC50 on 926638-142-R-J1-PDC complex spheroid viability for CC(C)n1c(=O)n(C)c2cnc3cc(F)c(-c4ccc(OCCCN5CCCCC5)nc4)cc3c21 + Cc1cccc(N(C)C(=O)C2C(O)CCN2c2nc(C)cc(C(F)(F)F)c2C#N)c1 , please.
Result :: > 10 µM

Query :: Observed IC50 on 926638-142-R-J1-PDC complex spheroid viability for COc1cc(C2c3cc4c(cc3C(OC3OC5COC(C)OC5C(O)C3O)C3COC(=O)C23)OCO4)cc(OC)c1O (stereo not drawn) + Nc1ccc(C#CCN(C(=O)Cc2ncc(C(F)(F)F)cc2C(F)(F)F)c2ccc(F)cc2)nn1 , please.
Result :: > 10 µM

Query :: Observed IC50 on 926638-142-R-J1-PDC complex spheroid viability for O=C(c1cc(Cc2n[nH]c(=O)c3ccccc23)ccc1F)N1CCN(C(=O)C2CC2)CC1 + COC1C(OC(N)=O)C(O)C(Oc2ccc3c(O)c(NC(=O)c4ccc(O)c(CC=C(C)C)c4)c(=O)oc3c2C)OC1(C)C , please.
Result :: > 10 µM
